Test system: guinea pig left atria
Test: Positive inotropic effect in guinea pig left atria
Details: Cavia porcellus; ratio of the maximum effect of the test compound to that of Bay K8644; read-out: Intrinsic Activity
The label true is reserved for Emax strictly under 70%; false covers values equal to or above it.

Lab note: Emax threshold 70%. Does this molecule come in strictly under it? COc1ccccc1N1CCN(CCCCOC(=O)C2=C(C)NC(C)=C([N+](=O)[O-])C2c2ccco2)CC1 (centres unmarked) true

Bench note: check whether COc1ccccc1N1CCN(CCOC(=O)C2=C(C)NC(C)=C([N+](=O)[O-])C2c2cccnc2)CC1 (centres unmarked) shows Emax below 70% false

Is Emax strictly under 70% for the entry COc1ccccc1N1CCN(CCCCOC(=O)C2=C(C)NC(C)=C([N+](=O)[O-])C2c2ccsc2)CC1 (centres unmarked) ? true

Identify whether the molecule COC(=O)C1=C(C)NC(C)=C([N+](=O)[O-])C1c1ccccc1[S+]([O-])CCCCN1CCN(c2ccccc2OC)CC1 (centres unmarked) records Emax below 70%. true

Identify whether the molecule CC1=C(C(=O)OCCN2CCN(c3ncccn3)CC2)C(c2cccnc2)C([N+](=O)[O-])=C(C)N1 (centres unmarked) records Emax below 70%. true

Consider COC(=O)C1=C(C)NC(C)=C([N+](=O)[O-])C1c1ccccc1OCCCCCN1CCN(c2cnccn2)CC1 (centres unmarked) . Does its Emax lie strictly below 70%? true

Confirm or reject: Emax of COc1ccccc1N1CCN(CCCCOC(=O)C2=C(C)NC(C)=C([N+](=O)[O-])C2c2cccnc2)CC1 (centres unmarked) lies strictly below 70% true

Item CC1=C(C(=O)OCCCCN2CCN(c3ncccn3)CC2)C(c2cccs2)C([N+](=O)[O-])=C(C)N1 (centres unmarked) : Emax beneath 70%, strictly? false

Hello, I'm reviewing records and need to know if Emax of COC(=O)C1=C(C)NC(C)=C([N+](=O)[O-])C1c1ccccc1S(=O)(=O)CCCCN1CCN(c2ccccc2OC)CC1 (centres unmarked) is below 70%. Could you check? false

Does this molecule meet the criterion Emax < 70%? CC1=C(C(=O)OCCN2CCN(c3ncccn3)CC2)C(c2ccoc2)C([N+](=O)[O-])=C(C)N1 (centres unmarked) false

Dear reviewer, please state whether CC1=C(C(=O)OCCN2CCN(c3ncccn3)CC2)C(c2cccc3nonc23)C([N+](=O)[O-])=C(C)N1 (centres unmarked) has Emax strictly beneath 70%. false

Criterion: Emax strictly below 70%. Is it met by CC1=C(C(=O)OCCCCN2CCN(c3ncccn3)CC2)C(c2cccc3nonc23)C([N+](=O)[O-])=C(C)N1 (centres unmarked) ? true
